Below, each of the compounds is paired with its reported GI50 value.
# Test system: HS 578T
# experimentNotes: panel of 60 human tumor cell lines, growth inhibition (Breast Cancer)
# statedConditions: Homo sapiens, Hs-578T

- compound: "C=C1C(=O)O[C@H]2[C@H]1CC/C(COC(=O)NCCN1CCOCC1)=C\\CC[C@@]1(C)O[C@@H]21"
  GI50 (µM): 20.1
- compound: "C=C1C(=O)O[C@H]2[C@H]1CC/C(COC(=O)NCCc1ccccn1)=C\\CC[C@@]1(C)O[C@@H]21"
  GI50 (µM): 4.66
- compound: "C=C1C(=O)O[C@H]2[C@H]1CC/C(COC(=O)OCCCN1CCCCC1)=C\\CC[C@@]1(C)O[C@@H]21"
  GI50 (µM): 4.96
- compound: "C=C1C(=O)O[C@H]2[C@H]1CC/C(COC(=S)n1ccnc1)=C\\CC[C@@]1(C)O[C@@H]21"
  GI50 (µM): 26.5
- compound: "C=C1C(=O)O[C@H]2[C@H]1CC/C(COC(=O)OC)=C\\CC[C@@]1(C)O[C@@H]21"
  GI50 (µM): 4.72
